The origin of these recorded values is ChEMBL document CHEMBL5038625.

Tested on: SK-MEL-5
Experiment: Antiproliferative activity against human SK-MEL-5 cells assessed as cell growth inhibition at 10 uM incubated for 24 hrs by sulforhodamine B assay
Type: functional
Details: read-out: GI
ENDPOINT: inhibition of growth at 10 µM

{"GIVEN SMILES": "CC(C)c1nc(SCC(=O)c2ccccc2)nc(Nc2cccc(S(N)(=O)=O)c2)c1C#N", "MEASURED TARGET": "SK-MEL-5", "inhibition of growth at 10 µM": "7.01%"}

Challenge: Find the recorded inhibition of growth at 10 µM belonging to `NS(=O)(=O)c1ccc(Nc2cc(-c3ccccc3)nc(SCC(=O)c3ccc(Br)cc3)n2)cc1` and report it.
Response given: 5.28%

Challenge: Moving on to the next compound: `COc1ccc(OC)c(-c2nc(SCC(=O)c3ccc(Br)cc3)nc(Nc3cccc(S(N)(=O)=O)c3)c2C#N)c1`
Response given: 5.18%

Challenge: Entry to check: `CC(C)c1nc(SCC(=O)c2ccc(Br)cc2)nc(Nc2ccc(S(N)(=O)=O)cc2)c1C#N`
Response given: 5.21%

Challenge: Same for `Cc1ccc(-c2nc(SCC(=O)c3ccccc3)nc(Nc3ccc(S(N)(=O)=O)cc3)c2C#N)cc1`
Response given: 24.5%

Challenge: Follow-up entry: `COc1ccc(OC)c(-c2nc(SCC(=O)c3ccccc3)nc(Nc3ccc(S(N)(=O)=O)cc3)c2C#N)c1`
Response given: 5.91%

Challenge: Can you check `COc1ccc(OC)c(-c2nc(SCC(=O)c3ccc(Br)cc3)nc(Nc3ccc(S(N)(=O)=O)cc3)c2C#N)c1` next?
Response given: 44%

---

Tested on: UACC-62
Test: Antiproliferative activity against human UACC-62 cells assessed as cell growth inhibition at 10 uM incubated for 24 hrs by sulforhodamine B assay
Type: functional
Conditions: read-out: GI
ENDPOINT: inhibition of growth at 10 µM (%)
Please reply with the bare figure in % and do not write the unit itself.

The examples below pair each entry with its known result.
{"GIVEN SMILES": "CC(C)c1nc(SCC(=O)c2ccccc2)nc(Nc2ccc(S(N)(=O)=O)cc2)c1C#N", "VAL": 10.2}
{"GIVEN SMILES": "COc1ccc(OC)c(-c2nc(SCC(=O)c3ccc(Br)cc3)nc(Nc3ccc(S(N)(=O)=O)cc3)c2C#N)c1", "VAL": 57.3}
{"GIVEN SMILES": "Cc1ccc(-c2nc(SCC(=O)c3ccccc3)nc(Nc3ccc(S(N)(=O)=O)cc3)c2C#N)cc1", "VAL": 19.7}

Lab note: next molecule to report on.
Challenge: Item under review: `COc1ccc(OC)c(-c2nc(SCC(=O)c3ccc(Br)cc3)nc(Nc3cccc(S(N)(=O)=O)c3)c2C#N)c1` . Reported inhibition of growth at 10 µM?
Response given: 11.6

---

System: SNB-19
Experiment: Antiproliferative activity against human SNB-19 cells assessed as cell growth inhibition at 10 uM incubated for 24 hrs by sulforhodamine B assay
Type: functional
Conditions: read-out: GI
Catalogue of compounds with associated inhibition of growth at 10 µM
Give your result in % as a bare value.

Here is how some compounds turned out for inhibition of growth at 10 µM.
{"GIVEN SMILES": "COc1ccc(OC)c(-c2nc(SCC(=O)c3ccccc3)nc(Nc3ccc(S(N)(=O)=O)cc3)c2C#N)c1", "inhibition of growth at 10 µM [%]": 9.28}
{"GIVEN SMILES": "Cc1ccc(-c2nc(SCC(=O)c3ccccc3)nc(Nc3ccc(S(N)(=O)=O)cc3)c2C#N)cc1", "inhibition of growth at 10 µM [%]": 22.8}
{"GIVEN SMILES": "COc1ccc(OC)c(-c2nc(SCC(=O)c3ccc(Br)cc3)nc(Nc3cccc(S(N)(=O)=O)c3)c2C#N)c1", "inhibition of growth at 10 µM [%]": 16.4}

Challenge: Entry `COc1ccc(OC)c(-c2nc(SCC(=O)c3ccc(Br)cc3)nc(Nc3ccc(S(N)(=O)=O)cc3)c2C#N)c1` , system SNB-19: what inhibition of growth at 10 µM was measured?
Response given: 50.1

Challenge: What do you get for `COc1ccc(C(=O)CSc2nc(Nc3cccc(S(N)(=O)=O)c3)c(C#N)c(C(C)C)n2)cc1` ?
Response given: 5.74
